- Read-out: Interferon-gamma inducible Protein 10 (IP10), CXCL10 (gene 3627)
- Measurement Description: BSK_hDFCGF_IP10: BioMAP Diversity Plus: hDFCGF Assay for Interferon-gamma inducible Protein 10 (IP10) Biomarker Activity (AID 2283053)
- Condition Details: primary human foreskin fibroblasts; actives raise or lower the signal
Calls of active or inactive are those of the source. How the source made its calls: active means hit-call score of the fitted dose curve at least 0.9, where 1 is the maximum; inactive means score below 0.9.
Mark one answer only. Choices: active, inactive

So what was the verdict on N#CC(CCc1ccc(Cl)cc1)(Cn1cncn1)c1ccccc1 (stereo not drawn) in this test?
inactive

So what was the verdict on Cc1cc(Cl)ccc1OCC(=O)O in this test?
inactive

So what was the verdict on CN(C)C(=S)SSC(=S)N(C)C in this test?
active

So what was the verdict on CC1=C(C(=O)Nc2ccccc2)SCCO1 in this test?
inactive

So what was the verdict on CC(Oc1ccc(Cl)cc1Cl)C(=O)O (stereo not drawn) in this test?
inactive

So what was the verdict on CC1COC(Cn2cncn2)(c2ccc(Oc3ccc(Cl)cc3)cc2Cl)O1 (stereo not drawn) in this test?
active

So what was the verdict on C=CC1(C)OC(=O)N(c2cc(Cl)cc(Cl)c2)C1=O (stereo not drawn) in this test?
inactive

So what was the verdict on CCNc1nc(Cl)nc(NC(C)C)n1 in this test?
inactive

So what was the verdict on C#CCOS(=O)OC1CCCCC1Oc1ccc(C(C)(C)C)cc1 (stereo not drawn) in this test?
active

So what was the verdict on CON(C)C(=O)Nc1ccc(Cl)c(Cl)c1 in this test?
inactive

So what was the verdict on O=C(O)c1nc(Cl)ccc1Cl in this test?
inactive

So what was the verdict on CC(C)C1(C)N=C(c2nc3ccccc3cc2C(=O)O)NC1=O (stereo not drawn) in this test?
inactive

So what was the verdict on Fc1ccc(Oc2ccnc3cc(Cl)cc(Cl)c23)cc1 in this test?
active

====

- Read-out: xenobiotic metabolism (CYP1A2), CYP1A2 (gene 1544)
- Measurement Description: CLD_CYP1A2_24hr: CellzDirect (CLD) Gene Expression Assay for xenobiotic metabolism (CYP1A2) at 24 hours (AID 2283683)
Results filed as inconclusive are left out. The source made the active and inactive calls. The calls were made as follows: active = hit-call score of the fitted dose curve at least 0.9, where 1 is the maximum; inconclusive = response in the unintended direction; inactive = score below 0.9.
Quantity Name: AC50

Previously resolved entries follow.
>>> test_value("OC(c1ccc(Cl)cc1)(c1cncnc1)c1ccccc1Cl (stereo not given)")
"inactive"
>>> test_value("CC1=C(C(=O)Nc2ccccc2)SCCO1")
"15.1 µM (active)"
>>> test_value("COC(=O)N(OC)c1ccccc1COc1ccn(-c2ccc(Cl)cc2)n1")
"0.545 µM (active)"
>>> test_value("CCNc1nc(Cl)nc(NCC)n1")
"5.26 µM (active)"
>>> test_value("C=CCC1=C(C)[C@@H](OC(=O)[C@@H]2[C@@H](C=C(C)C)C2(C)C)CC1=O")
"inactive"

Please give the documented AC50 of CCc1nn(C)c(C(=O)NCc2ccc(C(C)(C)C)cc2)c1Cl
inactive

Please give the documented AC50 of N#Cc1cc(Br)c(O)c(Br)c1
33.4 µM (active)

Please give the documented AC50 of CNC(=O)ON=CC(C)(C)SC
inactive

Please give the documented AC50 of C=CCC1=C(C)C(OC(=O)C2C(C=C(C)C)C2(C)C)CC1=O (stereo not given)
inactive

====

- Read-out: Intercellular Adhesion Molecule 1 (ICAM1), ICAM1 (gene 3383)
- Measurement Description: LTEA_HepaRG_ICAM1: Life Technologies and Expression Analysis (LTEA) Assay for Intercellular Adhesion Molecule 1 (ICAM1) using HepaRG (AID 2283507)
- Condition Details: mRNA level, 48 h; actives raise or lower the signal
Calls of active or inactive are those of the source. The calls were made as follows: active = hit-call score of the fitted dose curve at least 0.9, where 1 is the maximum; inactive = score below 0.9.
Quantity Name: AC50

>>> test_value("CCOC(=O)C(Cl)Cc1cc(-n2nc(C)n(C(F)F)c2=O)c(F)cc1Cl (stereo not drawn)")
"inactive"
>>> test_value("N#CC(CCc1ccc(Cl)cc1)(Cn1cncn1)c1ccccc1 (stereo not drawn)")
"71.6 µM (active)"
>>> test_value("C=CCC1=C(C)C(OC(=O)C2C(C=C(C)C)C2(C)C)CC1=O (stereo not drawn)")
"inactive"
>>> test_value("CCON=C(CC)C1=C(O)CC(c2c(C)cc(C)cc2C)CC1=O (stereo not drawn)")
"inactive"
>>> test_value("CCNc1nc(Cl)nc(NCC)n1")
"inactive"
>>> test_value("COP(N)(=O)SC (stereo not drawn)")
"inactive"
>>> test_value("Cc1c(F)c(F)c(COC(=O)C2C(/C=C(\\Cl)C(F)(F)F)C2(C)C)c(F)c1F (stereo not drawn)")
"inactive"
>>> test_value("CNC(=S)S")
"inactive"
>>> test_value("CC1=C(C(=O)Nc2ccccc2)SCCO1")
"inactive"
>>> test_value("N#Cc1cc(Br)c(O)c(Br)c1")
"69.9 µM (active)"

Please give the documented AC50 of CCOc1cc(Oc2ccc(C(F)(F)F)cc2Cl)ccc1[N+](=O)[O-]
50 µM (active)

Please give the documented AC50 of CN(C)C(=S)SSC(=S)N(C)C
inactive

Please give the documented AC50 of O=C(O)COc1nc(Cl)c(Cl)cc1Cl
inactive

Please give the documented AC50 of COC(=O)N(OC)c1ccccc1COc1ccn(-c2ccc(Cl)cc2)n1
81.2 µM (active)

Please give the documented AC50 of O=C(Nc1ccccc1)Nc1ccnc(Cl)c1
inactive

Please give the documented AC50 of COc1ccc(C(c2ccc(OC)cc2)C(Cl)(Cl)Cl)cc1
inactive

Please give the documented AC50 of CC(C)C1(C)N=C(c2nc3ccccc3cc2C(=O)O)NC1=O (stereo not drawn)
inactive

Please give the documented AC50 of Cc1cc(Cl)ccc1OCC(=O)O
inactive

====

- Read-out: CD40, CD40 (gene 958)
- Measurement Description: BSK_LPS_CD40: BioMAP Diversity Plus: LPS Assay for CD40 Biomarker Activity (AID 2283076)
- Condition Details: primary human HUVEC with PBMC; actives raise or lower the signal
Calls of active or inactive are those of the source. The calls were made as follows: active = hit-call score of the fitted dose curve at least 0.9, where 1 is the maximum; inactive = score below 0.9.
Mark one answer only. Choices: active, inactive

So what was the verdict on Cc1c(F)c(F)c(COC(=O)C2C(/C=C(\Cl)C(F)(F)F)C2(C)C)c(F)c1F (configuration not stated) in this test?
active

So what was the verdict on Cc1ccc(-c2c(Cl)nc(C#N)n2S(=O)(=O)N(C)C)cc1 in this test?
active

So what was the verdict on O=C(O)c1nc(Cl)ccc1Cl in this test?
inactive

So what was the verdict on CCOC(=O)CC(SP(=S)(OC)OC)C(=O)OCC (configuration not stated) in this test?
inactive

So what was the verdict on CS/C(C)=N/OC(=O)N(C)SN(C)C(=O)O/N=C(\C)SC in this test?
active

So what was the verdict on CCCCOC(=O)c1ccccc1C(=O)OCCCC in this test?
inactive

So what was the verdict on CNC(=S)S in this test?
active

====

- Read-out: urokinase plasminogen activator (uPA), PLAU (gene 5328)
- Measurement Description: BSK_KF3CT_uPA: BioMAP Diversity Plus: KF3CT Assay for urokinase plasminogen activator (uPA) Biomarker Activity (AID 2283075)
- Condition Details: primary human keratinocytes with fibroblasts; actives raise or lower the signal
Calls of active or inactive are those of the source. Rule for the calls: active = hit-call score of the fitted dose curve at least 0.9, where 1 is the maximum; inactive = score below 0.9.
Mark one answer only. Choices: class 1 for active, class 0 for inactive

So what was the verdict on COc1nc(C)nc(NC(=O)NS(=O)(=O)c2ccccc2CCC(F)(F)F)n1 in this test?
class 0

So what was the verdict on CCCCOC(=O)c1ccccc1C(=O)OCCCC in this test?
class 0

So what was the verdict on Cc1ccc(-c2c(Cl)nc(C#N)n2S(=O)(=O)N(C)C)cc1 in this test?
class 0

So what was the verdict on CCON=C(CC)C1=C(O)CC(c2c(C)cc(C)cc2C)CC1=O (stereo not drawn) in this test?
class 0

So what was the verdict on CCc1nn(C)c(C(=O)NCc2ccc(C(C)(C)C)cc2)c1Cl in this test?
class 1

So what was the verdict on CC1=C(C(=O)Nc2ccccc2)SCCO1 in this test?
class 0

So what was the verdict on CCOc1cc(Oc2ccc(C(F)(F)F)cc2Cl)ccc1[N+](=O)[O-] in this test?
class 0

So what was the verdict on CCCCNC(=O)n1c(NC(=O)OC)nc2ccccc21 in this test?
class 0

So what was the verdict on C=CC1(C)OC(=O)N(c2cc(Cl)cc(Cl)c2)C1=O (stereo not drawn) in this test?
class 0

So what was the verdict on Fc1ccc(Oc2ccnc3cc(Cl)cc(Cl)c23)cc1 in this test?
class 0

So what was the verdict on COP(N)(=O)SC (stereo not drawn) in this test?
class 0

So what was the verdict on CC1COC(Cn2cncn2)(c2ccc(Oc3ccc(Cl)cc3)cc2Cl)O1 (stereo not drawn) in this test?
class 1

So what was the verdict on COc1ccc(C(c2ccc(OC)cc2)C(Cl)(Cl)Cl)cc1 in this test?
class 0

So what was the verdict on CCNc1nc(Cl)nc(NCC)n1 in this test?
class 0

So what was the verdict on CC(C)C1(C)N=C(c2nc3ccccc3cc2C(=O)O)NC1=O (stereo not drawn) in this test?
class 0

So what was the verdict on O=C(Nc1ccccc1)Nc1ccnc(Cl)c1 in this test?
class 0

So what was the verdict on COc1nc(NC(C)C)nc(NC(C)C)n1 in this test?
class 0

So what was the verdict on N#Cc1nn(-c2c(Cl)cc(C(F)(F)F)cc2Cl)c(N)c1S(=O)C(F)(F)F (stereo not drawn) in this test?
class 0
